# assayed-target: Adenosine receptor A1 (Homo sapiens)
# measurement-notes: Displacement of [3H]DPCPX from human adenosine A1 receptor expressed in CHO cell membranes at 1 uM incubated for 60 mins by scintillation counting method
# condition-notes: Cell membrane
readout-label: inhibition (%)

Please review the entries below; each comes with its answer.
compound: CCSC(=O)C1=C(C)NC(=O)NC1c1ccsc1 (racemic)
unit-label: %
inhibition: 11
--
compound: CC1=C(C(=O)OC2CCCC2)C(c2cccs2)NC(=O)N1 (racemic)
unit-label: %
inhibition: 9
--
compound: COC(=O)C1=C(C)N(C)C(=O)NC1c1ccsc1 (racemic)
unit-label: %
inhibition: 24
--
compound: CC1=C(C(=O)OC(C)(C)C)C(c2cccs2)NC(=S)N1 (racemic)
unit-label: %
inhibition: 22
--
compound: CCN(CC)C(=O)C1=C(C)NC(=O)NC1c1cccs1 (racemic)
unit-label: %
inhibition: 13

P: COC(=O)C1=C(C)N(C)C(=O)NC1c1ccoc1 (racemic)
Q: CC1=C(C(=O)OC2CCCC2)C(c2ccoc2)NC(=O)N1 (racemic)
Kindly compare P with Q and tell me which has the lower inhibition figure. Give the label of your selection.
Q
(Q: 6%, P: 15%)
